Assay: chemical genetic growth profiling, strain panel (AID 1159580);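 note: tested at 20 µM; growth read once vehicle control cultures reached saturation at 30 °C; 1 = growth at the plate median or of vehicle wells; lower values mean less growth of the strain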
Settings: S. cerevisiae deletion strains, growth OD, locus YDR069C, strain doa4, stronger effect = lower value
Screen size: about 5,500 compounds; about 2,000 (36%) were called active. Roughly 18% stayed inconclusive and do not appear here. The list shows a part of the results.
Below: a set of entries, each annotated with reported normalized growth.
Keep the answer to the number alone.

Examples with answers:
COc1ccc2c(c1)CCC1C2CC[C@@]2(C)C1CC[C@@H]2O (stereo partly drawn)
1.01
C[C@]12CCC3c4ccc(OS(=O)(=O)O)cc4CCC3C1CC[C@H]2O (stereo partly drawn)
0.981

Next, consider the following compound.
The measured normalized growth associated with `CCCCCc1c2c(cc(O)c1C(=O)O)OC(=O)c1c(cc(OC)cc1C(=O)CCCC)O2` reads 0.985

###

Experiment: chemical genetic growth profiling, strain panel (AID 1159580)
Settings: S. cerevisiae deletion strains, growth OD, locus YPL256C, strain CLN2, stronger effect = lower value
The whole screen tested about 5,500 compounds, of which about 2,000 (36%) were called active. Roughly 18% stayed inconclusive and do not appear here. Some of the results follow.
MEASUREMENT TYPE: normalized growth
Keep the answer to the number alone.

COc1cc(Br)cc(C=Nc2ccc(Sc3ccccc3)nc2Sc2ccccc2)c1O
0.794
NC(=O)CN1CCCC1=O
0.979
C[C@]12C=CC(=O)C=C1CCC1C2[C@@H](O)C[C@@]2(C)C1CC[C@]2(O)C(=O)COP(=O)(O)O (stereo partly drawn)
0.997

The measured normalized growth associated with CC(=O)Oc1ccc2c(c1OC(C)=O)OCC1(O)Cc3c(cc(OC(C)=O)c(OC(C)=O)c3OC(C)=O)C21 (stereo not drawn) reads 1.05

The measured normalized growth associated with C[C@@H]1CC[C@@]2(OC1)OC1CC3C4CC=C5C[C@@H](O)CC[C@]5(C)C4CC[C@]3(C)C1[C@@H]2C (stereo partly drawn) reads 0.974

The measured normalized growth associated with `NC(=O)c1ncn([C@@H]2O[C@H](CO)[C@@H](O)[C@H]2O)n1` reads 0.981

The measured normalized growth associated with `COC1=CC(=O)C(O)=C/C1=C\C=C\c1ccccc1` reads 0.131

The measured normalized growth associated with `c1ccc(-c2nnc(-c3ccccn3)nc2-c2ccccc2)cc1` reads 0.545

The measured normalized growth associated with `CC(=O)OCC1=C(C(=O)O)N2C(=O)[C@@H](NC(=O)Cc3cccs3)[C@H]2SC1` reads 0.962

The measured normalized growth associated with `Cc1[nH]ccc2c1[nH]c1cc(=O)ccc12` reads 1.03

The measured normalized growth associated with CC1CCC2(OC1)OC1CC3C4CC[C@H]5C[C@@H](O)CC[C@]5(C)C4CC(=O)[C@]3(C)C1C2C (stereo partly drawn) reads 0.963

The measured normalized growth associated with `NC(=O)OCC(COC(N)=O)c1ccccc1` reads 0.976

The measured normalized growth associated with CC(NC(=S)N/N=C\c1ccccc1O)c1ccccc1 (stereo not drawn) reads 0.944

The measured normalized growth associated with Oc1ccc2c(c1)OCC1(O)Cc3cc(O)c(O)cc3C21 (stereo not drawn) reads 0.995

The measured normalized growth associated with `CC(C)(C)NC(=S)N/N=C\c1ccccc1O` reads 0.949

The measured normalized growth associated with Oc1cc2c(cc1O)C1c3ccc(O)c(O)c3OCC1(O)C2 (stereo not drawn) reads 1.02

The measured normalized growth associated with C[C@]12CCC3c4ccc(OS(=O)(=O)O)cc4CCC3C1CC[C@H]2O (stereo partly drawn) reads 0.981

The measured normalized growth associated with Cc1ccccc1OCC(O)CO (stereo not drawn) reads 0.974

###

Assay: chemical genetic growth profiling, strain panel (AID 1159580);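 note: tested at 20 µM; growth read once vehicle control cultures reached saturation at 30 °C; 1 = growth at the plate median or of vehicle wells; lower values mean less growth of the strain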
Conditions: S. cerevisiae deletion strains, growth OD, locus YDL101C, strain DUN1, stronger effect = lower value
Hit rate of the full screen: of about 5,500 compounds, about 2,000 (36%) were called active. Roughly 18% stayed inconclusive and do not appear here. This is one part of the list.
Below: a set of entries, each annotated with reported normalized growth.

CCOC(=O)N/N=C\c1cc(Cl)cc(Cl)c1O
0.95 (inactive)
COC(=O)C[C@H]1C(C)(C)C2(Cl)O[C@@]34CC2C(=O)[C@]1(C)C3CC[C@]1(C)C4=CC(=O)O[C@H]1c1ccoc1 (some centres undefined)
0.997 (inactive)
NC(=NCCC[C@H](N)C(=O)O)N[N+](=O)[O-]
1 (inactive)
CC(=O)Oc1ccc2c(c1OC(C)=O)OCC1(O)Cc3c(cc(OC(C)=O)c(OC(C)=O)c3OC(C)=O)C21 (centres undefined)
0.943 (inactive)
CCCCNC(=S)N/N=C\c1cc(Cl)cc(Cl)c1O
0.97 (inactive)
O=C(O[C@@H]1Cc2c(O)cc(O)cc2O[C@@H]1c1cc(O)c(=O)c2c(O)c(O)cc([C@H]3Oc4cc(O)cc(O)c4C[C@H]3O)c2c1)c1cc(O)c(O)c(O)c1
0.233 (active)

The measured normalized growth associated with CCC1OC(=O)[C@H](C)C(=O)[C@H](C)[C@@H](OC2O[C@H](C)C[C@H](N(C)C)[C@H]2O)[C@](C)(OC)C2(CCCn3cnc(-c4cccnc4)c3)C[C@@H](C)C(=O)[C@H](C)[C@H]3N(C2)C(=O)O[C@]13C (some centres undefined) reads 1.01 (inactive)

The measured normalized growth associated with `CCN1C[C@]2(C)CC[C@H](OC)[C@]34C2[C@H](O)[C@]2(OCO[C@@]25C[C@H](OC)[C@H]2C[C@]3(O)C5[C@H]2O)C14` reads 1.01 (inactive)

The measured normalized growth associated with `COCCCNC(=S)N/N=C\c1cccc(OC)c1O` reads 0.998 (inactive)

The measured normalized growth associated with Oc1ccc2c(c1)OCC1(O)Cc3cc(O)c(O)cc3C21 (centres undefined) reads 0.958 (inactive)

The measured normalized growth associated with `COc1ccc(Cl)cc1C(=O)NCCc1ccc(S(=O)(=O)NC(=O)NC2CCCCC2)cc1` reads 0.978 (inactive)

The measured normalized growth associated with CC(C)CC1NC(=O)NC1=O (centres undefined) reads 1 (inactive)

The measured normalized growth associated with `COCCCNC(=S)N/N=C\c1cc(Br)ccc1O` reads 0.975 (inactive)

The measured normalized growth associated with `COc1ccc(-c2oc3cc(O[C@H]4O[C@H](CO)[C@@H](O)[C@H](O)[C@H]4O)c(OC)c(O)c3c(=O)c2OC)cc1O` reads 0.997 (inactive)

###

Experiment: chemical genetic growth profiling, strain panel (AID 1159580);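 note: tested at 20 µM; growth read once vehicle control cultures reached saturation at 30 °C; 1 = growth at the plate median or of vehicle wells; lower values mean less growth of the strain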
Conditions: S. cerevisiae deletion strains, growth OD, locus YAL040C, strain CLN3, stronger effect = lower value
Screen size: about 5,500 compounds; about 2,000 (36%) were called active. About 18% were inconclusive and are not listed. The list shows a part of the results.
MEASUREMENT TYPE: normalized growth
Keep the answer to the number alone.

Examples with answers:
CC(C)(C)NCC(O)c1cc(O)cc(O)c1 (stereo not given)
0.976
NC(=O)OCC(COC(N)=O)c1ccccc1
1.03
N#C/C(=C\c1ccc(O)c(O)c1)C(=O)NCCCc1ccccc1
0.98
O=c1c(O)c(-c2cc(O)c(O)c(O)c2)oc2cc(O)cc(O)c12
1.07
COc1cc(C(O)CO)ccc1OS(=O)(=O)O (stereo not given)
0.981

Next, consider the following compound.
The measured normalized growth associated with `CC(C)(C)c1cc(C=C(C#N)C#N)cc(C(C)(C)C)c1O` reads 0.965

###

Experiment: chemical genetic growth profiling, strain panel (AID 1159580);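 note: tested at 20 µM; growth read once vehicle control cultures reached saturation at 30 °C; 1 = growth at the plate median or of vehicle wells; lower values mean less growth of the strain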
Details: S. cerevisiae deletion strains, growth OD, locus YNL209W, strain ssb2, stronger effect = lower value
The whole screen tested about 5,500 compounds, of which about 2,000 (36%) were called active. Roughly 18% stayed inconclusive and do not appear here. The list shows a part of the results.
Below: a set of entries, each annotated with reported normalized growth.
Keep the answer to the number alone.

Examples with answers:
CC1CCC2(OC1)OC1CC3C4CC[C@H]5C[C@@H](O)CC[C@]5(C)C4CC(=O)[C@]3(C)C1C2C (stereo partly specified)
1.01
CC(C)c1c(O)c(-c2cc3c(c(C(C)C)c2O)CCC2C(C)(C)CCC[C@]32C)cc2c1CCC1C(C)(C)CCC[C@]21C (stereo partly specified)
0.986
CC(=O)O[C@]1(C(C)=O)CCC2C3C=C(Cl)C4=CC(=O)[C@@H]5C[C@@H]5[C@]4(C)C3CC[C@@]21C (stereo partly specified)
0.999
Cc1cc(C2CCCCC2)n(O)c(=O)c1
0.0627

The measured normalized growth associated with `O=c1ccc2c(O)c3ccoc3cc2o1` reads 0.975

The measured normalized growth associated with `COc1ccc2ccc(=O)oc2c1` reads 1.01

The measured normalized growth associated with C[N+](C)(C)CC(O)CC(=O)O (stereo unspecified) reads 0.989

The measured normalized growth associated with `COc1ccc(-c2cc(=O)c3c(O)cc(O[C@H]4O[C@H](CO[C@@H]5O[C@@H](C)[C@H](O)[C@@H](O)[C@H]5O)[C@@H](O)[C@H](O)[C@H]4O)cc3o2)cc1` reads 0.991

The measured normalized growth associated with CC(C)(C)NCC(O)c1cc(O)cc(O)c1 (stereo unspecified) reads 0.989

The measured normalized growth associated with `O=c1c(O)c(-c2ccc(O)c(O)c2)oc2c(O)c(O)cc(O)c12` reads 0.94

The measured normalized growth associated with CC(=O)Oc1ccc2c(c1C(C)C)CCC1C(C)(C)CCC[C@]21C (stereo partly specified) reads 1.02
